# assay_remarks: Determination of drug solubility in aqueous and organic solvent;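 further: solid drug suspended at 50 mg/mL nominal in each solvent, vortexed and sonicated, then dissolved concentration in filtered supernatant quantified by HPLC against a calibration curve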
# Type: physicochemical
# condition_details: thermodynamic from solid; Table 3B; water; drug added to 50 mg/mL; read-out: Solubility Water
measured_parameter: solubility

Look over these answered cases.
CCN(Cc1cccc(OC)c1)C(=O)Nc1ccc(-c2cn[nH]c2)cc1OCCN1CCCC1 [RKI-1y, reference compound]
< 1000 µg/mL
CCOC(=O)CCC(=O)O[C@H](COc1nsnc1N1CCOCC1)CN(C(=O)[C@H](C)OC(=O)[C@H](C)OC(=O)[C@H](C)OC(=O)[C@H](C)OC(C)=O)C(C)(C)C
< 1000 µg/mL
CCCCC/C=C\C/C=C\CCCCCCCC(=O)O[C@@H](CNC(C)(C)C)COc1nsnc1N1CCOCC1.O=C(O)/C=C\C(=O)O [Compound 70-1, Timolol-O-linoleic acid maleate]
< 10 µg/mL
CC/C=C\C/C=C\C/C=C\C/C=C\C/C=C\C/C=C\CCC(=O)NS(=O)(=O)c1cc2c(s1)S(=O)(=O)[C@@H](C)C[C@@H]2NCC
< 1000 µg/mL

Q. Suppose we examine the compound COc1cccc(CN(CCO)C(=O)Nc2ccc(-c3cn[nH]c3)cc2)c1 [SR5834, reference compound] ; what solubility value has been reported?
A. < 1000 µg/mL

Q. Suppose we examine the compound CC(=O)OC(C)C(=O)OC(C)C(=O)OC(C)C(=O)OC(C)C(=O)N(C[C@@H](COc1nsnc1N1CCOCC1)OC(=O)C(C)OC(=O)C(C)OC(C)=O)C(C)(C)C (stereo partly drawn) ; what solubility value has been reported?
A. < 6 µg/mL
